Just for reference, patent US20250064941A1 is where these values come from.

target entity: human Siglec-2/CD22 protein (Homo sapiens)
Sequence (P20273 20-847): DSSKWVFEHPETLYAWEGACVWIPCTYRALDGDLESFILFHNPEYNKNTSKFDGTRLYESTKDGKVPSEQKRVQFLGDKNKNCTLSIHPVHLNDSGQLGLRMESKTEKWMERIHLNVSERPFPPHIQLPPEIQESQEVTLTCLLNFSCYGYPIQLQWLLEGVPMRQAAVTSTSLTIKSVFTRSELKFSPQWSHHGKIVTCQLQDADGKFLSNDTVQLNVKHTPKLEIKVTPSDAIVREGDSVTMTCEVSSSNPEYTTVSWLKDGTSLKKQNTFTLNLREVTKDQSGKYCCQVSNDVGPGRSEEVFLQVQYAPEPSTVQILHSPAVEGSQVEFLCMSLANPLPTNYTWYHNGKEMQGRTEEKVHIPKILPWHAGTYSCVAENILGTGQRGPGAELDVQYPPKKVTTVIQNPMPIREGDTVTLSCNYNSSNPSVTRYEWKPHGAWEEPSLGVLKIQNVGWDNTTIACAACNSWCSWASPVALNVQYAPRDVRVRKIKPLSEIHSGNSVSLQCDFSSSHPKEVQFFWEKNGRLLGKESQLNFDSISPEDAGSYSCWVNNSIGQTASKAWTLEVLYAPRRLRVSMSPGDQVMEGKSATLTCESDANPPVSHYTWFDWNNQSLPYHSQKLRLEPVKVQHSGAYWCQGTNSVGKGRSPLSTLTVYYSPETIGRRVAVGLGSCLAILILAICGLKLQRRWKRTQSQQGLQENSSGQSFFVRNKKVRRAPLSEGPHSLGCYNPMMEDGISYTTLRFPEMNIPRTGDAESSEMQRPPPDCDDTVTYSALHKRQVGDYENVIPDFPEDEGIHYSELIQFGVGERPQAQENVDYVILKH
assay overview: SPR binding affinity to human CD22
experimental conditions: steady-state analysis
Measured Kd by item

Q. Provide measured Kd on human Siglec-2/CD22 protein (Homo sapiens) for C#CCOCCOP(=O)(O)OCCCCCCO[C@]1(C(=O)O)C[C@H](O)[C@@H](NC(=O)CO)[C@H]([C@H](O)[C@H](O)CNC(=O)Cc2ccc(C(F)F)cc2)O1 please.
A. < 1000 nM

Q. Provide measured Kd on human Siglec-2/CD22 protein (Homo sapiens) for C#CCOCCCCCCO[C@]1(C(=O)O)C[C@H](O)[C@@H](NC(=O)CO)[C@H]([C@H](O)[C@H](O)CNC(=O)Cc2cccc(O)c2)O1 please.
A. 1000 to 10000 nM

Q. Provide measured Kd on human Siglec-2/CD22 protein (Homo sapiens) for C#CCOCCOCCO[C@]1(C(=O)O)C[C@H](O)[C@@H](NC(=O)CO)[C@H]([C@H](O)[C@H](O)CNC(=O)C[C@H]2CC[C@H](O)CC2)O1 please.
A. > 10000 nM

Q. Provide measured Kd on human Siglec-2/CD22 protein (Homo sapiens) for C#CCOCCOCCO[C@]1(C(=O)O)C[C@H](O)[C@@H](NC(=O)CO)[C@H]([C@H](O)[C@H](O)CNC(=O)Cc2ccc(-c3ccccc3)nc2)O1 please.
A. 1000 to 10000 nM

Q. Provide measured Kd on human Siglec-2/CD22 protein (Homo sapiens) for C#CCOCCOCCO[C@]1(C(=O)O)C[C@H](O)[C@@H](NC(=O)CO)[C@H]([C@H](O)[C@H](O)CNC(=O)Cc2ccc(-c3ccc4[nH]ccc4c3)cc2)O1 please.
A. < 1000 nM

Q. Provide measured Kd on human Siglec-2/CD22 protein (Homo sapiens) for C#CCCOc1ccc(CO[C@]2(C(=O)O)C[C@H](O)[C@@H](NC(=O)CO)[C@H]([C@H](O)[C@H](O)CNC(=O)Cc3ccc(Cl)cc3)O2)cc1 please.
A. < 1000 nM

----------
Measured Kd by item
target entity: cynomolgus Siglec-2/CD22 (Macaca fascicularis, UniProt A0A2K5WCZ6)
Sequence (A0A2K5WCZ6 entry or part of it): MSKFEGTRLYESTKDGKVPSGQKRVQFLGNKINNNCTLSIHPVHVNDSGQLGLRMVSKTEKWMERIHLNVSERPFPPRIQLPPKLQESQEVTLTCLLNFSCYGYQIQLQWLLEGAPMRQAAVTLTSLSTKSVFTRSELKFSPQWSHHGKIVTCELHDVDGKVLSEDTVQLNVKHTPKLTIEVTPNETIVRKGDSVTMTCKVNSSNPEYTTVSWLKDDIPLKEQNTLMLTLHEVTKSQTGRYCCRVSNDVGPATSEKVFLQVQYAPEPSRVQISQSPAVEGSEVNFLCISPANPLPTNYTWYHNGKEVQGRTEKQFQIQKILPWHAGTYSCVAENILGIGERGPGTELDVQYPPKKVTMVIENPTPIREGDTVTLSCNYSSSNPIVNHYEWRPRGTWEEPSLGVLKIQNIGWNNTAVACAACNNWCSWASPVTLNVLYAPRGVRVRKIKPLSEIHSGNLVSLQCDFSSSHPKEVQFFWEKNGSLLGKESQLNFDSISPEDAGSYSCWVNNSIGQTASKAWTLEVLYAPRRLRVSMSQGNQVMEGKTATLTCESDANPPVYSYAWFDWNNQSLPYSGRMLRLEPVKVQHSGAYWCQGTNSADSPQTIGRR
assay overview: biochemical
Format: binding
experimental conditions: SPR, steady-state analysis; read-out: Affinity cyno CD22
Method: Prior to immobilization, CD22 proteins were treated with SialoExo (Genovis, Cat #G1-SM1-020) for 4 hours at 37° C. to remove native sialic acid residues. […] Binding experiments of Siglec-ligand conjugated proteins or Siglec ligand compounds were performed on the surfaces prepared above in 10 mM HEPES, 150 mM NaCl, 0.05% Tween-20, pH 7.5, 1% DMSO as the running buffer. […] Data was analyzed using steady-state analysis in Biacore Insight Evaluation Software, version 3.0 for Siglec ligand compounds.

Worked examples follow.
Q. Retrieve Kd measured for CCCCCCC[C@]1(C(=O)O)C[C@H](O)[C@@H](NC(=O)CO)[C@H]([C@H](O)[C@H](O)CNC(=O)Cc2ccc(Cl)cc2)O1 and print it.
A. < 1 µM

Q. Retrieve Kd measured for C#CCCOc1ccc(CO[C@]2(C(=O)O)C[C@H](O)[C@@H](NC(=O)CO)[C@H]([C@H](O)[C@H](O)CNC(=O)Cc3ccccc3NC(C)=O)O2)cc1 and print it.
A. 1 to 10 µM

Now, please, on to the next compound.
Q. Retrieve Kd measured for O=C(O)CCCCCCO[C@]1(C(=O)O)C[C@H](O)[C@@H](NC(=O)CO)[C@H]([C@H](O)[C@H](O)CNC(=O)Cc2ccc(Cl)cc2)O1 and print it.
A. < 1 µM
